Examples of compounds with documented IC50 follow.
Molecular target: Growth hormone secretagogue receptor type 1 (Homo sapiens, UniProt Q92847)
Sequence (Q92847 whole entry): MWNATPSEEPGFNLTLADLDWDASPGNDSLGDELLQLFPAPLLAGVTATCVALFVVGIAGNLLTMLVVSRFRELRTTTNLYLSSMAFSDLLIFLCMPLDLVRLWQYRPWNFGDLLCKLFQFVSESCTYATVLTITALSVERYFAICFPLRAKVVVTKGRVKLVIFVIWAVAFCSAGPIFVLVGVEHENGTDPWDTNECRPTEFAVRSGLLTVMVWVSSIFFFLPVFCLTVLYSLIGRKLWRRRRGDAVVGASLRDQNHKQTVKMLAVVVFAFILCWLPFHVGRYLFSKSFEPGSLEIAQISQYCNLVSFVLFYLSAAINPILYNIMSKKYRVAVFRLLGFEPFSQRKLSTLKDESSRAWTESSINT
Test: Displacement of [125I]human ghrelin from human GHS-R1a expressed in HEK cell membranes after 60 mins by gamma counting method

Illustrative cases are given below, each with its answer.
Cc1ccn(-c2ccc(C(=O)NC(=O)Nc3nc4ccc(S(=O)(=O)CCCN5CCN(C)CC5)cc4s3)c(Cl)c2)n1 : 0.48 nM
Cc1ccnn1-c1ccc(Cl)c(C(=O)NC(=O)Nc2nc3ccc(S(=O)(=O)C4CCN(C)CC4)cc3s2)c1 : 33 nM

Req: Give its IC50 value. Item: `CN1CCN(CCCS(=O)(=O)c2ccc3nc(NC(=O)NC(=O)c4cc(-n5cccn5)ccc4Cl)sc3c2)CC1`
Resp: 0.67 nM

Req: Which IC50 reading was recorded for the compound `CN1CCN(CCCS(=O)(=O)c2ccc3nc(NC(=O)NC(=O)c4cc(-n5cccc5)ccc4Cl)sc3c2)CC1` ?
Resp: 0.15 nM

Req: Which IC50 is reported for this compound? `Cc1ccn(-c2ccc(Cl)c(C(=O)NC(=O)Nc3nc4ccc(S(=O)(=O)CCCN5CCN(C)CC5)cc4s3)c2)n1`
Resp: 0.53 nM

* * *

Tested on: MDR1
Test: Apparent permeability in MDCK cells expressing MDR1 at 10 uM assessed as apical to basolateral side transport
Format: ADME, cell-based, Canis lupus familiaris
Conditions: dog
Listing of entries alongside the reported Papp A→B at 10 µM.
The answer is to be given in ×10⁻⁶ cm/s; state only the numeric part.

// known answers, use as guide
CN1CCC(S(=O)(=O)c2ccc3nc(NC(=O)NC(=O)c4cc5c(cc4Cl)CCN5C)sc3c2)CC1 : 5.1
CN1CCN(CCCS(=O)(=O)c2ccc3nc(NC(=O)NC(=O)c4cc(-c5ccccn5)ccc4Cl)sc3c2)CC1 : 0.52
Cc1ccn(-c2ccc(Cl)c(C(=O)NC(=O)Nc3nc4ccc(S(=O)(=O)CCCN5CCN(C)CC5)cc4s3)c2)n1 : 0.68
CN1CCN(CCCS(=O)(=O)c2ccc3nc(NC(=O)NC(=O)c4cc(N5CCOCC5)ccc4Cl)sc3c2)CC1 : 0.53
CN1CCC(S(=O)(=O)c2ccc3nc(NC(=O)NC(=O)c4cc(N5CCCC5)ccc4Cl)sc3c2)CC1 : 11

Req: Recorded Papp A→B at 10 µM for `COc1cc(Cl)c(C(=O)NC(=O)Nc2nc3ccc(S(=O)(=O)CCCN4CCN(C)CC4)cc3s2)cc1-n1cccn1` , please?
Resp: 0.86

Req: Consider the compound shown here: `CN1CCN(CCCS(=O)(=O)c2ccc3nc(NC(=O)NC(=O)c4cc(N5CCCC5)ccc4Cl)sc3c2)CC1` What is its recorded Papp A→B at 10 µM?
Resp: 4.5

Req: Form field: reported Papp A→B at 10 µM of `CN1CCN(CCCS(=O)(=O)c2ccc3nc(NC(=O)NC(=O)c4ccccc4Cl)sc3c2)CC1`
Resp: 7.1

* * *

Tested on: MDR1
Assay: Apparent permeability in MDCK cells expressing MDR1 at 10 uM assessed as apical to basolateral side transport
Format: ADME, cell-based, Canis lupus familiaris
Details: dog
Entries annotated with measured Papp A→B at 10 µM
The figure you give is taken to be in ×10⁻⁶ cm/s; do not add the unit.

CCc1ccc(Cl)c(C(=O)NC(=O)Nc2nc3ccc(S(=O)(=O)CCCN4CCN(C)CC4)cc3s2)c1 : 1.7

Let us examine a further case.
Req: // map `CCN(CC)CCCS(=O)(=O)c1ccc2nc(NC(=O)NC(=O)c3ccccc3Cl)sc2c1` to recorded Papp A→B at 10 µM (system: MDR1)
Resp: 5.4
